Assay overview: yeast display, Sf9 membrane polyspecificity reagent, FACS + sequencing; frameworks hold sequencing errors
Recorded metric: polyreactivity (PSR sort gate)

QVQLVESGGGLVQAGGSLRLSCAASGSTFYYNAMGWYRQSPGKERELVARISRSGGSTYADSVKRRFTISRDNAKNTVYLQMNSLKPEDTAVYYCNAEAYGTPEFTSYAVRYDYWGQGTQVTVSS low polyreactivity
QVQLVESGGGLVQAGGSLRLSCAASGNIFLFYVMGWYRQAPVKERELVAAITLSGTNTYYADSVKGRFTISRDNAKNNVYLQMNSLKPEDTAVYYCNADWWSDGYDYWGQRTQVTVSS low polyreactivity

* * *

Assay overview: yeast display, Sf9 membrane polyspecificity reagent, FACS + sequencing; frameworks hold sequencing errors
Recorded metric: polyreactivity (PSR sort gate)

QVQLVESGGGLVQAGGSLRLSCAASGSTLAVYAMGWYRQAPGKEREFFAAISWSGVSTYYADSVKGRFTISRDNAKNTVYLQMNSLKPEDTAVYYCAAKRVRALYGGSEGGYWGQGTQVTVSS low polyreactivity
QDQLVESGGGLVQAGGSLRLSCAASGSIFLYNAMGWYRQAPGKERELVADITSAGRTYYADSVKGRFTISRDNAKNTVYLQMNSLKPEDTAVYDCNKDYHYHFSWYGYWGQGTQVTVSS low polyreactivity
